Data origin: patent US20120190613A1

Test system: C. parapsilosis 630 ATCC 90018
Assay: MIC by broth microdilution against C. parapsilosis
Format: cell-based
Settings: 50% mouse serum, 48 hr
Starred links: 1 amine or outer side, 2 acyl side, 3 side chain; linkers in the order of their positions; H or OH if unused. Positions of bridges follow the written chain, without caps; N, C: chain ends. Non-standard residues stand in square brackets, D forms with d. Residues, ends and D or L forms follow the SMILES beside them. *: point of attachment. Orn(4R-OH,5R-OH) = O=C([C@H](C[C@@H](O)[C@@H](O)N[*:3])N[*:1])[*:2]; Tetradecanoyl(10R,12S-Me2) = CC[C@H](C)C[C@H](C)CCCCCCCCC(=O)*; hTyr(3S-OH,4S-OH) = N[C@H](C(=O)O)[C@H](O)[C@@H](O)c1ccc(O)cc1; Gln(3R-OH) = NC(=O)C[C@@H](O)[C@H](N)C(=O)O; Pro(3S-OH) = O=C(O)[C@H]1NCC[C@@H]1O; Hyp = O=C(O)[C@@H]1C[C@@H](O)CN1
Entries and their measured MIC follow.

{"compound": "CC[C@H](C)C[C@H](C)CCCCCCCCC(=O)N[C@H]1C[C@@H](O)[C@@H](O)NC(=O)[C@@H]2[C@@H](O)CCN2C(=O)[C@H]([C@H](O)CC(N)=O)NC(=O)[C@H]([C@H](O)[C@@H](O)c2ccc(O)cc2)NC(=O)[C@@H]2C[C@@H](O)CN2C(=O)[C@H]([C@@H](C)O)NC1=O [Pneumocandin B0, pneumocandin B0, reference compound] ({Tetradecanoyl(10R,12S-Me2)}-[Orn(4R-OH,5R-OH)]T[Hyp][hTyr(3S-OH,4S-OH)][Gln(3R-OH)][Pro(3S-OH)]; lactam 1-C)", "MIC": ">16 µg/mL"}
{"compound": "CCC(C)CC(C)CCCCCCCCC(=O)NC1CC(O)C(NCCNC(=O)OCCOC)NC(=O)C2C(O)CCN2C(=O)C(C(O)CCNC(=O)OCCOC)NC(=O)C(C(O)C(O)c2ccc(O)cc2)NC(=O)C2CC(O)CN2C(=O)C(C(C)O)NC1=O (stereo not drawn)", "MIC": ">16 µg/mL"}
{"compound": "CCCCCOc1ccc(-c2ccc(-c3ccc(C(=O)NC4CC(O)C(OCCCCCCOCCOCCOCCOCCOCCOCCOCCOC)NC(=O)C5C(O)C(C)CN5C(=O)C(C(C)O)NC(=O)C(C(O)C(O)c5ccc(O)cc5)NC(=O)C5CC(O)CN5C(=O)C(C(C)O)NC4=O)cc3)cc2)cc1 (stereo not drawn)", "MIC": ">16 µg/mL"}

====

Test system: C. albicans R303
Experiment: Mouse candidiasis infection model, C. albicans density in kidneys
Format: in vivo, female CD-1 mice
Conditions: First run, 5 mg/kg IP 2 hr after infection, kidneys at 24 hr, neutropenic mice
Entries and their measured Mean log10 CFU/kidneys (±SD) follow.

{"compound": "CCC(C)CC(C)CCCCCCCCC(=O)NC1CC(O)C(NCCNC(=O)OCCOC)NC(=O)C2C(O)CCN2C(=O)C(C(O)CCN)NC(=O)C(C(O)C(O)c2ccc(O)cc2)NC(=O)C2CC(O)CN2C(=O)C(C(C)O)NC1=O (centres unmarked)", "Mean log10 CFU/kidneys (±SD) (log10 CFU/kidneys)": 1.90}
{"compound": "CCCCCOc1ccc(-c2ccc(-c3ccc(C(=O)NC4CC(O)C(OCCOCCOCCOCCOC)NC(=O)C5C(O)C(C)CN5C(=O)C(C(C)O)NC(=O)C(C(O)C(O)c5ccc(O)cc5)NC(=O)C5CC(O)CN5C(=O)C(C(C)O)NC4=O)cc3)cc2)cc1 (centres unmarked)", "Mean log10 CFU/kidneys (±SD) (log10 CFU/kidneys)": 3.01}
